Origin of measurements: PubChem BioAssay AID624129

# SYSTEM_NAME: C-X-C chemokine receptor type 6 (Homo sapiens)
# TEST_PROTOCOL: potency against CXCR6 with APJ panel – cell-based, beta-arrestin, DiscoveRx, uHTS hits, dose response (AID 624129)
# ASSAY_CONDITIONS: CXCR6 beta-arrestin (DiscoveRx) antagonist cell assay, CXCR6, dose range 1, mean IC50 across replicates
pIC50: −log10 of the molar value.
If the reported pIC50 equals or exceeds 5, assign yes. If not, assign no.

INSERT INTO results (molecule, system_name, classification) VALUES
  ('COc1ccc(-c2csc(Cc3nc(O)cs3)n2)cc1', 'C-X-C chemokine receptor type 6 (Homo sapiens)', 'yes'),
  ('FC(F)(F)c1cnc(NNC(=S)Nc2ccccc2Cl)c(Cl)c1', 'C-X-C chemokine receptor type 6 (Homo sapiens)', 'no'),
  ('COc1cc(C(=O)NCC(c2ccco2)N2CCc3ccccc3C2)cc(OC)c1OC (stereo not drawn)', 'C-X-C chemokine receptor type 6 (Homo sapiens)', 'no'),
  ('O=C1C=CC(=O)N1CCNc1ncc(C(F)(F)F)cc1Cl', 'C-X-C chemokine receptor type 6 (Homo sapiens)', 'no'),
  ('Cc1ccc(/C=N/NC(=S)N2CCOCC2)cc1', 'C-X-C chemokine receptor type 6 (Homo sapiens)', 'yes'),
  ('Cc1cccnc1Nc1nc(-c2ccccn2)cs1', 'C-X-C chemokine receptor type 6 (Homo sapiens)', 'yes');
